Biological target: T1, human Granzyme B (human, UniProt P10144 21-247)
T1 construct: Captured on a Series S Streptavidin chip for SPR; also called hGranzyme B; GzmB
T1 sequence (P10144 21-247 limits assumed): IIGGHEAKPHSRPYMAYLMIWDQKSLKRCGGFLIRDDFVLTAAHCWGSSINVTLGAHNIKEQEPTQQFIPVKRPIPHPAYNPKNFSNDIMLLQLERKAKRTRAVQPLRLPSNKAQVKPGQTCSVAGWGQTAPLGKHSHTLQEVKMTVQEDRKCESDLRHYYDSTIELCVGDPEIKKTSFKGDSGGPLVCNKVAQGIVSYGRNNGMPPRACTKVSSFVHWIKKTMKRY
Test: SPR, Biacore 8k+, hGranzyme B captured on SA chip, single cycle kinetics, 1:1 model
Bridge positions count the residues as written; N and C are the ends. Square brackets hold non-standard residues; d marks the D form. Pip = O=C(O)[C@@H]1CCCCN1
Measured pKd values are reported for all entries that follow.
Schema: pKd number; meaning minus log10 of the concentration expressed in molar units.

These recorded examples may help you get a feel for the data.
{CH2CO}-FNFEDQSAFTWQPCG-NH2 (thioether N-14; SMILES C[C@@H]1NC(=O)[C@H](CO)NC(=O)[C@H](CCC(N)=O)NC(=O)[C@H](CC(=O)O)NC(=O)[C@H](CCC(=O)O)NC(=O)[C@H](Cc2ccccc2)NC(=O)[C@H](CC(N)=O)NC(=O)[C@H](Cc2ccccc2)NC(=O)CSC[C@@H](C(=O)NCC(N)=O)NC(=O)[C@@H]2CCCN2C(=O)[C@H](CCC(N)=O)NC(=O)[C@H](Cc2c[nH]c3ccccc23)NC(=O)[C@H]([C@@H](C)O)NC(=O)[C@H](Cc2ccccc2)NC1=O) [Compound 78a] :: 7.46
{CH2CO}-FNFEDQSAITWQPCG-NH2 (thioether N-14; SMILES CC[C@H](C)[C@@H]1NC(=O)[C@H](C)NC(=O)[C@H](CO)NC(=O)[C@H](CCC(N)=O)NC(=O)[C@H](CC(=O)O)NC(=O)[C@H](CCC(=O)O)NC(=O)[C@H](Cc2ccccc2)NC(=O)[C@H](CC(N)=O)NC(=O)[C@H](Cc2ccccc2)NC(=O)CSC[C@@H](C(=O)NCC(N)=O)NC(=O)[C@@H]2CCCN2C(=O)[C@H](CCC(N)=O)NC(=O)[C@H](Cc2c[nH]c3ccccc23)NC(=O)[C@H]([C@@H](C)O)NC1=O) [Compound 85a] :: 7.23
{CH2CO}-FNFEDQSADTWQPCGGK(AF647)-NH2 (thioether N-14) [Compound 9a] :: 7.89

Given the binder {CH2CO}-FNFEDQS[Pip]DTWQPCG-NH2 (thioether N-14) [Compound 76a] , what is its reported pKd?
7.54
